These entries and their values trace back to the supplement of paper PMC12669032.

Please respond with reported growth AUC for every item in the list.
test system: Escherichia coli IAI1; test: growth AUC relative to DMSO control (median of replicates) (fraction); higher = more growth (less inhibition), active = hit call of the paper; details: 20 µM; 24 h
Numbers only.

Sample answers from the record:
> print(dat)
                                   molecule            system.name     readout  observed.value
1      CCOP(=O)(OCC)Oc1ccc([N+](=O)[O-])cc1  Escherichia coli IAI1  growth AUC            1.03
2  Cc1cc(C)nc(NC(=O)NS(=O)(=O)c2ccccc2C(=O)OC2COC2)n1  Escherichia coli IAI1  growth AUC           0.983
3                               NCP(=O)(O)O  Escherichia coli IAI1  growth AUC            1.04

// for each molecule below, give its growth AUC
1. CCCCc1c(C)nc(NCC)nc1OS(=O)(=O)N(C)C
2. CNC(=O)Oc1cccc2c1OC(C)(C)C2
3. CSC1=N[C@@](C)(c2ccccc2)C(=O)N1Nc1ccccc1
4. COCc1cnc(C2=NC(C)(C(C)C)C(=O)N2)c(C(=O)O)c1 (centres undefined)
5. CCSC(=O)N(CC)C1CCCCC1
6. COP(=O)(OC)Oc1ccc(S(C)(=O)=O)c(C)c1
7. CC(C)(O)C(Cl)(Cl)Cl.CC(C)(O)C(Cl)(Cl)Cl.O

1: 1.01; 2: 0.985; 3: 0.993; 4: 0.982; 5: 1.03; 6: 0.983; 7: 1.02
